# system_under_test: human androgen receptor (Homo sapiens, UniProt P10275, T878A)
# Construct: The human androgen receptor was expressed in LNCAP cells; endogenous in cells; host or cells: LNCaP cells (supernatant of homogenate)
# Sequence (P10275 whole entry T878A): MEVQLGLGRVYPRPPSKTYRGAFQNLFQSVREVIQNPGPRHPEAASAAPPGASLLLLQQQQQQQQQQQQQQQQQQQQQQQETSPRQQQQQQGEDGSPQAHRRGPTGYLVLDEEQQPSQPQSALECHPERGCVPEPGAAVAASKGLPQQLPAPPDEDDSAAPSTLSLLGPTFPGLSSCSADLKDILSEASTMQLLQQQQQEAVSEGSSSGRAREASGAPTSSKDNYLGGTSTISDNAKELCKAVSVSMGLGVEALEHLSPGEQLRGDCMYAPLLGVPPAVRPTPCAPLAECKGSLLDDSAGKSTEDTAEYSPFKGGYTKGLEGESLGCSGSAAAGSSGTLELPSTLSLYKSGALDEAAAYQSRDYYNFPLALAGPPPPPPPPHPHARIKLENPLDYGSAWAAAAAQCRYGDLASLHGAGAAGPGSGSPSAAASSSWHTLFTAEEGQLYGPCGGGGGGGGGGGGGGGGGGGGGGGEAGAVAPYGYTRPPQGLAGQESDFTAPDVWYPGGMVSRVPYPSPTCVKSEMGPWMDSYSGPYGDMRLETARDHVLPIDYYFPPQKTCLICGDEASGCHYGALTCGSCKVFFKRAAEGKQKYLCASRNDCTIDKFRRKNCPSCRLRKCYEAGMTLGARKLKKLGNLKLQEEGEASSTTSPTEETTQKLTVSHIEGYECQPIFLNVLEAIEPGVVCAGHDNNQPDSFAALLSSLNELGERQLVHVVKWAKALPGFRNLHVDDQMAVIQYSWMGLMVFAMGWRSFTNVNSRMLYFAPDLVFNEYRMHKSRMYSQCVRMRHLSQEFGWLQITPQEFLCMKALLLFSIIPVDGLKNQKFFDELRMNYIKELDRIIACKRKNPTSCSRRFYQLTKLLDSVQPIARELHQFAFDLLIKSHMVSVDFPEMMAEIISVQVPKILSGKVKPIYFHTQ
# protocol_details: Human Androgen Receptor (AR) Binding
# experimental_parameters: AR Binding Activity Ki (μM), first column; Reference Compound Mibolerone
So I've got a bunch of molecules here, and I need their Ki values.
Value expressed in µM; do not type the unit.

Return Ki for the following molecule: CC1(C)C(=O)N(c2ccc(C#N)c(C(F)(F)F)c2)C(=O)N1c1ccc(C(N)=O)c(F)c1
0.83

Report Ki for CNC(=O)c1ccc(N2C(=O)N(c3ccc(C#N)c(C(F)(F)F)c3)C(=O)C2(C)C)cc1F
0.69

Fill in Ki for record CC1(C)C(=O)N(c2ccc(C#N)c(C(F)(F)F)c2)C(=S)N1c1ccc(C(N)=O)c(F)c1
0.074

====

# system_under_test: Dopamine D1 (h) (Homo sapiens)
# Construct: expressed in transfected cells; host or cells: CHO cells
# Sequence (P21728 whole entry): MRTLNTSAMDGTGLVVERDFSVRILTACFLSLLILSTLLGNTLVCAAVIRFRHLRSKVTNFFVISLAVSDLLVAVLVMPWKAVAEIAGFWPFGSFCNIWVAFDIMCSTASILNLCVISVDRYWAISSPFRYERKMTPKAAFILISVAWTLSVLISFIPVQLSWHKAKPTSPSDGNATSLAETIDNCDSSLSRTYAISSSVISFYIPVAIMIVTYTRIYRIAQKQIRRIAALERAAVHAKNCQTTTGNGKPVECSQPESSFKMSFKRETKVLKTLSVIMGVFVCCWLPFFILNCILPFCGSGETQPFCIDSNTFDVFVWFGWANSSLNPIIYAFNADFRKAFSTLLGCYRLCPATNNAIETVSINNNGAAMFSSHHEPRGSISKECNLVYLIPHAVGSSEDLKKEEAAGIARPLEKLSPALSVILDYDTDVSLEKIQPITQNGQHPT
# protocol_details: Binding D1 (h) (aa)
# experimental_parameters: read-out: % Inhibition of Control Specific Binding @ 10 μM
assay_readout: inhibition at 10 µM (%)
Dear colleague, please return just the value in %, with no unit written.

Write down inhibition at 10 µM measured for item CC1(C)C(=O)N(c2ccc(C#N)c(C(F)(F)F)c2)C(=O)N1c1ccc(C(N)=O)c(F)c1
-17

Assign inhibition at 10 µM to the following record: CC1(C)C(=O)N(c2ccc(C#N)c(C(F)(F)F)c2)C(=S)N1c1ccc(C(N)=O)c(F)c1
-14

Recall and state the measured inhibition at 10 µM for CC1(C)C(=O)N(c2ccc(C#N)c(C(F)(F)F)c2)C(=S)N1c1ccc(C(=O)O)c(F)c1 .
-18

Respond only with inhibition at 10 µM recorded for CNC(=O)c1ccc(N2C(=O)N(c3ccc(C#N)c(C(F)(F)F)c3)C(=O)C2(C)C)cc1F
-17

====

# system_under_test: Endothelin ETA (h) (Homo sapiens, UniProt P25101)
# Construct: expressed in transfected cells; host or cells: CHO cells
# Sequence (P25101 21-427): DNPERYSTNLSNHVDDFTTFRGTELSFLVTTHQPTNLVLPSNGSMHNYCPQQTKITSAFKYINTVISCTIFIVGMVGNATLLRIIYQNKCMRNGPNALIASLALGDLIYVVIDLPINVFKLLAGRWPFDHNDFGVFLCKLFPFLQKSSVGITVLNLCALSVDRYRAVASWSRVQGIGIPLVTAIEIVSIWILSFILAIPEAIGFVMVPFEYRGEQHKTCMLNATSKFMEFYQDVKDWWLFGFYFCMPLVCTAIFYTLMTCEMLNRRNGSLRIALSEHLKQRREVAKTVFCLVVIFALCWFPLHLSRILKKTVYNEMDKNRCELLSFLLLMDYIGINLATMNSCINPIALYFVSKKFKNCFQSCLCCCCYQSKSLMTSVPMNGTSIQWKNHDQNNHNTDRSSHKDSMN
# protocol_details: Binding ETA (h) (ag)
# experimental_parameters: read-out: % Inhibition of Control Specific Binding @ 10 μM
assay_readout: inhibition at 10 µM (%)
The answer is to be given in %; state only the numeric part.

Query inhibition at 10 µM for CC1(C)C(=O)N(c2ccc(C#N)c(C(F)(F)F)c2)C(=O)N1c1ccc(C(N)=O)c(F)c1
-12

Annotate the compound CC1(C)C(=O)N(c2ccc(C#N)c(C(F)(F)F)c2)C(=S)N1c1ccc(C(=O)O)c(F)c1 with its measured inhibition at 10 µM.
-21

Name the recorded inhibition at 10 µM of the item CC1(C)C(=O)N(c2ccc(C#N)c(C(F)(F)F)c2)C(=S)N1c1ccc(C(N)=O)c(F)c1 in your answer.
-16

State its inhibition at 10 µM for this compound: CNC(=O)c1ccc(N2C(=O)N(c3ccc(C#N)c(C(F)(F)F)c3)C(=O)C2(C)C)cc1F
-27

====

# system_under_test: Angiotensin AT1 (h) (Homo sapiens, UniProt P30556)
# Construct: expressed in transfected cells; host or cells: HEK-293 cells
# Sequence (P30556 whole entry): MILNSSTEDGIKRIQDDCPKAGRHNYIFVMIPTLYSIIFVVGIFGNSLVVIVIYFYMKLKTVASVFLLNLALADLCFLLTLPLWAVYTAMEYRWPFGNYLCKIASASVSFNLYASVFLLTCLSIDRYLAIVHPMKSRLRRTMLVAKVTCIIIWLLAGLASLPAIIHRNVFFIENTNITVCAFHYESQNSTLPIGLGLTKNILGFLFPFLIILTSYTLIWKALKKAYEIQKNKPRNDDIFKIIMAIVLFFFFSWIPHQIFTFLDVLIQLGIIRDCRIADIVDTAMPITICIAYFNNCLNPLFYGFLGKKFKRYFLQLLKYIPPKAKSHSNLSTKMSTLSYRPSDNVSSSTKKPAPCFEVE
# protocol_details: Binding AT1 (h) (aa)
# experimental_parameters: read-out: % Inhibition of Control Specific Binding @ 10 μM
For each entry below, report its inhibition at 10 µM value.
// units = %; emit number, no label

Check the records and state inhibition at 10 µM for CNC(=O)c1ccc(N2C(=O)N(c3ccc(C#N)c(C(F)(F)F)c3)C(=O)C2(C)C)cc1F [(MIV)]
0

Consider the compound CC1(C)C(=O)N(c2ccc(C#N)c(C(F)(F)F)c2)C(=O)N1c1ccc(C(N)=O)c(F)c1 [(MIII)] and give its recorded inhibition at 10 µM.
6

Quick one: give measured inhibition at 10 µM for CC1(C)C(=O)N(c2ccc(C#N)c(C(F)(F)F)c2)C(=S)N1c1ccc(C(N)=O)c(F)c1 [(MII)]
0

Supply reported inhibition at 10 µM belonging to this compound: CC1(C)C(=O)N(c2ccc(C#N)c(C(F)(F)F)c2)C(=S)N1c1ccc(C(=O)O)c(F)c1 [(MI)]
11
